The reported measurements were obtained from PubChem BioAssay (NCI).

System: TK-10 renal
method: NCI tumour cell line growth inhibition, 48 h
Quick reference: TGI of the listed items.

[
  {
    "compound": "C=C1CC2(OC1=O)C(=O)N(CCCCCCCN1C(=O)C3(CC(=C)C(=O)O3)c3ccccc31)c1ccccc12 (stereo not given)",
    "TGI": "8.32 µM"
  },
  {
    "compound": "CN(C)C(=S)N/N=C\\C=N/NC(=S)N(C)C",
    "TGI": "> 100 µM"
  },
  {
    "compound": "O=[N+]([O-])c1ccc(C(c2c[nH]c3ccccc23)c2c[nH]c3ccccc23)cc1",
    "TGI": "28.5 µM"
  },
  {
    "compound": "COc1ccc(N2C=Nn3c(nc4sc(C)c(C)c4c3=O)C2)cc1",
    "TGI": "> 100 µM"
  },
  {
    "compound": "COC(=O)CCCc1ccc2c(c1)CC1(C2)Cc2cc3c(cc2C1)CCCC3",
    "TGI": "> 100 µM"
  },
  {
    "compound": "O=C(O)c1c(-c2cccc3ccccc23)sc(-c2cccc3ccccc23)c1C(=O)O",
    "TGI": "> 100 µM"
  },
  {
    "compound": "CC(C)Oc1c(-c2c(OC(C)C)c(=O)c2=O)c(=O)c1=O",
    "TGI": "> 100 µM"
  },
  {
    "compound": "Cc1cn(C2CC(n3cc(Cn4cc(F)c(=O)[nH]c4=O)nn3)C(CO)O2)c(=O)[nH]c1=O (stereo not given)",
    "TGI": "> 100 µM"
  },
  {
    "compound": "CC1=C(C)C(=O)c2c(cc3ccc4ccccc4n23)C1=O",
    "TGI": "> 100 µM"
  },
  {
    "compound": "Cc1cc2c(cc1Cl)Sc1nnc(Nc3ccccc3)n1S2(=O)=O",
    "TGI": "43.6 µM"
  }
]
